These entries and their values trace back to the supplement of paper PMC10567573.

Hi there, I'd appreciate the recorded protein stability index for every entry that follows.
B1: ZNF449 (parent)
chain: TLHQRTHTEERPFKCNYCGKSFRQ

- Variants of: B1
- ASSAY PROCEDURE: protein stability index of a GFP-peptide fusion (GPS, HEK-293T) (PSI 1-6); higher = more stable;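 also: lentivirally expressed fusions sorted by FACS into six bins by GFP to DsRed ratio, PSI derived from sequencing read proportions per bin multiplied by bin number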
- CONDITIONS USED: c terminus: a fixed tail appended
Answers are plain numbers.

For each entry beneath this line, provide reported protein stability index.
1. K14N
2. P12W
3. F22K
4. E10G
5. T1A

1.95
2.89
3.37
1.18
2.12
